# system name: human muscarinic M4 receptor (Homo sapiens, UniProt P08173)
# Construct: expressed in transfected cells
# measurement description: Phospho-ERK1/2 assay, muscarinic M4
# Type: cell-based
# assay conditions: CHO, read-out: % Emax cf. ACh (M4)
endpoint name: Emax (%)
Answer format: numeric, % implied, no suffix.

As a guide, the following entries are already answered.
The value of Emax measured for the compound CCOC(=O)N1CCC[C@H](N2CCC(C(=O)NCC(C)C)CC2)CC1 turned out to be 89

The value of Emax measured for the compound CCOC(=O)N1CCCC(N2CCC(F)(C(=O)NC3CCC3)CC2)CC1 (stereo not shown) turned out to be 69

The value of Emax measured for the compound CCOC(=O)N1CCCC(N2CCC(F)(C(=O)NCC(C)(C)C)CC2)CC1 (stereo not shown) turned out to be 63

---
The value of Emax measured for the compound CCOC(=O)N1CCCC(N2CCC(F)(C(=O)NC3(C)CCC3)CC2)CC1 (stereo not shown) turned out to be 90

The value of Emax measured for the compound CC#CCOC(=O)N1CCCC(N2CCC(OC)(C(=O)NC3(C)CCC3)CC2)CC1 (stereo not shown) turned out to be 71

The value of Emax measured for the compound CCOC(=O)N1CCCC(N2CCC(C#N)(C(=O)NC3(C)CCC3)CC2)CC1 (stereo not shown) turned out to be 81

The value of Emax measured for the compound [2H]C([2H])([2H])C([2H])(C([2H])([2H])[2H])C([2H])([2H])NC(=O)C1CCN(C2CCCN(C(=O)OCC)CC2)CC1 (stereo not shown) turned out to be 87

---

# system name: human muscarinic M4 receptor (Homo sapiens)
# Construct: expressed in transfected cells
# Sequence (P08173 1-479): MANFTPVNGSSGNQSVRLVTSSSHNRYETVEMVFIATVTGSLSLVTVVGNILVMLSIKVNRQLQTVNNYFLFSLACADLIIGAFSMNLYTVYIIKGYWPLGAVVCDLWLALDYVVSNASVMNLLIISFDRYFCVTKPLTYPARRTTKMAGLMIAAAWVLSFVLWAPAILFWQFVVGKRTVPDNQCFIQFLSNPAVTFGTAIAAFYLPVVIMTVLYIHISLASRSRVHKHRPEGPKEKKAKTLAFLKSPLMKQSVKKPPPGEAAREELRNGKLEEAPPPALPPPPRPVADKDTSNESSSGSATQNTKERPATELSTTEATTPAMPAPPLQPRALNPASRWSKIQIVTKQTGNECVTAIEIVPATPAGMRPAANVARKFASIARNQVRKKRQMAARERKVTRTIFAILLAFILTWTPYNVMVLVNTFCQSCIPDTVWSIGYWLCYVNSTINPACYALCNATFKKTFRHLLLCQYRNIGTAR
# measurement description: Phospho-ERK1/2 assay, muscarinic M4
# Assay type: cell-based
# assay conditions: CHO cells expressing human M4; phospho-ERK1/2 Alphascreen; read-out: pEC50 M4 (converted)
# Procedure: Functional assays were performed using the Alphascreen Surefire phospho-ERK1/2 assay (Crouch & Osmond, Comb. Chem. High Throughput Screen, 2008). […] Plates were incubated for 2 h with gentle agitation in the dark and then read on a PHERAstar plate reader. pEC50 and Emax figures were calculated from the resulting data for each receptor subtype.
endpoint name: EC50 (nM)
Answer format: numeric, nM implied, no suffix.

As a guide, the following entries are already answered.
The value of EC50 measured for the compound CCOC(=O)N1CCCC(N2CCC(C(=O)NC3CCCC3)CC2)CC1 (stereo not shown) [Example 30] turned out to be 224

The value of EC50 measured for the compound CCOC(=O)N1CCCC(N2CCC(C(=O)NC3(C)CCCCC3)CC2)CC1 (stereo not shown) [Example 17] turned out to be 724

The value of EC50 measured for the compound CCOC(=O)N1CCCC(N2CCC(F)(C(=O)NCC(C)C)CC2)CC1 (stereo not shown) [Example 40] turned out to be 851

The value of EC50 measured for the compound [2H]C([2H])([2H])C([2H])(C([2H])([2H])[2H])C([2H])([2H])NC(=O)C1CCN(C2CCCN(C(=O)OCC)CC2)CC1 (stereo not shown) [Example 75] turned out to be 794

The value of EC50 measured for the compound CCOC(=O)N1CCCC(N2CCC(C(=O)NCC3(C)CCCC3)CC2)CC1 (stereo not shown) [Example 18] turned out to be 589

The value of EC50 measured for the compound CCOC(=O)N1CCCC(N2CCC(F)(C(=O)NC(C)(C)CC)CC2)CC1 (stereo not shown) [Example 41] turned out to be 257

The value of EC50 measured for the compound CCOC(=O)N1CCCC(N2CCC(C(=O)NCC3(C)CCC3)CC2)CC1 (stereo not shown) [Example 69] turned out to be 240

The value of EC50 measured for the compound CCOC(=O)N1CCCC(N2CCC(OC)(C(=O)NC3(C)CCC3)CC2)CC1 (stereo not shown) [Example 79] turned out to be 871

---
The value of EC50 measured for the compound CCOC(=O)N1CCCC(N2CCC(F)(C(=O)NC(C)(C)C3CC3)CC2)CC1 (stereo not shown) [Example 54] turned out to be 229

The value of EC50 measured for the compound CCOC(=O)N1CCCC(N2CCC(F)(C(=O)NC3CCC3)CC2)CC1 (stereo not shown) [Example 55] turned out to be 1350

The value of EC50 measured for the compound CCOC(=O)N1CCCC(N2CCC(F)(C(=O)NC3CCCC3)CC2)CC1 (stereo not shown) [Example 51] turned out to be 708

The value of EC50 measured for the compound CCOC(=O)N1CCC[C@H](N2CCC(C(=O)NCC(C)C)CC2)CC1 [Example 63] turned out to be 646

The value of EC50 measured for the compound CCOC(=O)N1CCCC(N2CCC(F)(C(=O)NCC(C)(C)C)CC2)CC1 (stereo not shown) [Example 46] turned out to be 1070

The value of EC50 measured for the compound CCOC(=O)N1CCCC(N2CCC(C(=O)NC3(C(F)(F)F)CCC3)CC2)CC1 (stereo not shown) [Example 70] turned out to be 794
